assayed.target: Prostaglandin E2 receptor EP4 subtype (Homo sapiens)
Sequence (P35408 whole entry): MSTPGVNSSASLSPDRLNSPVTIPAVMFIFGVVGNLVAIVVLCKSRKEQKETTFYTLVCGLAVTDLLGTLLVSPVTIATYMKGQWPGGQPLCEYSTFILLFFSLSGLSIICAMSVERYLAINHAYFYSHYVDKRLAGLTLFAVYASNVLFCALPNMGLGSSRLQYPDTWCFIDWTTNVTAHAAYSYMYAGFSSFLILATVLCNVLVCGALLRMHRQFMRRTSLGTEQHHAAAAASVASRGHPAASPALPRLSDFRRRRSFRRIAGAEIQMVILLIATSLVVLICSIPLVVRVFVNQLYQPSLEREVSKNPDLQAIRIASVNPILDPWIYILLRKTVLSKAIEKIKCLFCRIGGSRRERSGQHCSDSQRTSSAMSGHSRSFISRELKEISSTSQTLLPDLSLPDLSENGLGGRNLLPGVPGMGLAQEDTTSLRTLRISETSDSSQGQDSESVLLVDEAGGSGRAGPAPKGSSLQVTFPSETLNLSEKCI
procedure.summary: Inhibition of human EP4 transfected in human HEK293 cells co transfected with SmBit-beta-arrestin. assessed as reduction in PGE2 induced-beta-arrestin recruitment by NanoBiT beta-arrestin recruitment assay
observable: IC50

Prostaglandin E2 receptor EP4 subtype (Homo sapiens) / IC50 / C/C=C/c1nnn(Cc2ccc(C(F)(F)F)cc2)c1C(=O)N[C@@H](C)c1ccc(C(=O)O)cc1 : value?
0.4 nM

====

procedure.summary: in vitro
condition.notes: human, liver microsomes
observable: half-life at 1 h, 10 µM

// query half-life at 1 h, 10 µM value for entry O=C(O)Cc1ccccc1Nc1c(Cl)cccc1Cl [DICLOFENAC]
0.177 h

// query half-life at 1 h, 10 µM value for entry C[C@H](NC(=O)c1c(-c2ccccc2)nnn1Cc1ccc(C(F)(F)F)cc1)c1ccc(C(=O)O)cc1
> 2.42 h

// query half-life at 1 h, 10 µM value for entry C/C=C/c1nnn(Cc2ccc(C(F)(F)F)cc2)c1C(=O)N[C@@H](C)c1ccc(C(=O)O)cc1
> 2.42 h

// query half-life at 1 h, 10 µM value for entry C[C@H](NC(=O)c1c(-c2ccsc2)nnn1Cc1ccc(C(F)(F)F)cc1)c1ccc(C(=O)O)cc1
> 2.42 h

// query half-life at 1 h, 10 µM value for entry C[C@]12CC[C@H]3[C@@H](CCC4=CC(=O)CC[C@@]43C)[C@@H]1CC[C@@H]2O [TESTOSTERONE]
0.323 h

// query half-life at 1 h, 10 µM value for entry C[C@H](NC(=O)c1c(-c2ccoc2)nnn1Cc1ccc(C(F)(F)F)cc1)c1ccc(C(=O)O)cc1
> 2.42 h

====

procedure.summary: Half life in BALB/c mouse at 1 mg/kg, iv measured upto 24 hrs by LC-MS/MS analysis
condition.notes: in vivo
I'd be grateful if you could share measured half-life at 24 h for these entries.
Report the value in h with no unit label.

// query half-life at 24 h value for entry C[C@H](NC(=O)c1c(-c2ccsc2)nnn1Cc1ccc(C(F)(F)F)cc1)c1ccc(C(=O)O)cc1
3.3

// query half-life at 24 h value for entry C/C=C/c1nnn(Cc2ccc(C(F)(F)F)cc2)c1C(=O)N[C@@H](C)c1ccc(C(=O)O)cc1
4.1

====

procedure.summary: in vivo
condition.notes: BALB/c, mouse, po, 5 mg/kg
Description: AUC (0 to infinity) in BALB/c mouse at 5 mg/kg, po measured upto 24 hrs by LC-MS/MS analysis
observable: AUC(0-inf) at 24 h

// query AUC(0-inf) at 24 h value for entry C[C@H](NC(=O)c1c(-c2ccsc2)nnn1Cc1ccc(C(F)(F)F)cc1)c1ccc(C(=O)O)cc1
654 ng·h/mL

// query AUC(0-inf) at 24 h value for entry C/C=C/c1nnn(Cc2ccc(C(F)(F)F)cc2)c1C(=O)N[C@@H](C)c1ccc(C(=O)O)cc1
1240 ng·h/mL

====

I'd be grateful if you could share measured microsomal CLint at 1 h, 10 µM for these entries.
procedure.summary: in vitro
condition.notes: human, liver microsomes

// query microsomal CLint at 1 h, 10 µM value for entry C/C=C/c1nnn(Cc2ccc(C(F)(F)F)cc2)c1C(=O)N[C@@H](C)c1ccc(C(=O)O)cc1
< 9.6 µL/min/mg

// query microsomal CLint at 1 h, 10 µM value for entry C[C@H](NC(=O)c1c(-c2ccoc2)nnn1Cc1ccc(C(F)(F)F)cc1)c1ccc(C(=O)O)cc1
< 9.6 µL/min/mg

// query microsomal CLint at 1 h, 10 µM value for entry C[C@H](NC(=O)c1c(-c2ccccc2)nnn1Cc1ccc(C(F)(F)F)cc1)c1ccc(C(=O)O)cc1
< 9.6 µL/min/mg

// query microsomal CLint at 1 h, 10 µM value for entry C[C@]12CC[C@H]3[C@@H](CCC4=CC(=O)CC[C@@]43C)[C@@H]1CC[C@@H]2O
71.3 µL/min/mg

// query microsomal CLint at 1 h, 10 µM value for entry O=C(O)Cc1ccccc1Nc1c(Cl)cccc1Cl
131 µL/min/mg

// query microsomal CLint at 1 h, 10 µM value for entry C[C@H](NC(=O)c1c(-c2ccsc2)nnn1Cc1ccc(C(F)(F)F)cc1)c1ccc(C(=O)O)cc1
< 9.6 µL/min/mg
